These measurements were taken from patent US11548903B2.

- assayed.system: human recombinant BACE2 (Homo sapiens (Human), UniProt Q9Y5Z0)
- Sequence (Q9Y5Z0 63-518): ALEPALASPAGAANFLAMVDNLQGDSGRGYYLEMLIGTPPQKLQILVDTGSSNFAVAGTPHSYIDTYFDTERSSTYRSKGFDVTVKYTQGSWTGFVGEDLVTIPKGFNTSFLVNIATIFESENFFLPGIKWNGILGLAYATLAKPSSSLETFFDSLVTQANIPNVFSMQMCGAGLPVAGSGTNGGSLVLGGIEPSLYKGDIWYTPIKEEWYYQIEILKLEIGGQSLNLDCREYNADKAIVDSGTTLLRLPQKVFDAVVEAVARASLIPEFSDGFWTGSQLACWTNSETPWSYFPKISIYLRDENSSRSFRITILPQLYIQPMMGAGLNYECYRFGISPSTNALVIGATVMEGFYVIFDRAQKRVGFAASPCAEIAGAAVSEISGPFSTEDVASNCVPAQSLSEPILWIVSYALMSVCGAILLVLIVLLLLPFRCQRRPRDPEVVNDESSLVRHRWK
- assay.notes: In vitro enzymatic BACE2 FRET assay
- Assay type: biochemical
- experimental.conditions: read-out: BACE2 Enzyme IC50
Response field class: string, computed from recorded IC50 by ranges LOW: < 20 nM; MEDIUM: ≥ 20 nM and < 100 nM; HIGH: ≥ 100 nM

Prompt: Tag the class for "C#C[C@H](C)Oc1cnc(/C(F)=C/c2ccc(F)c([C@]34CN(c5ncc(F)cn5)C[C@H]3CSC(N)=N4)c2)cn1"
Completion: LOW

Prompt: Tag the class for "N#Cc1cnc(/C(F)=C/c2ccc(F)c([C@]34CN(c5ncc(F)cn5)C[C@H]3CSC(N)=N4)c2)cn1"
Completion: LOW

Prompt: Tag the class for "NC1=N[C@@]2(c3cc(/C=C(\F)c4cnc(OCC(F)F)cn4)ccc3F)CN(c3ncc(F)cn3)C[C@H]2CS1"
Completion: MEDIUM

Prompt: Tag the class for Cc1noc(COc2cnc(/C(F)=C/c3ccc(F)c([C@]45CN(c6ncc(F)cn6)C[C@H]4CSC(N)=N5)c3)cn2)n1 (stereo in doubt)
Completion: MEDIUM

Prompt: Tag the class for "C#CCOc1cnc(/C(F)=C/c2ccc(F)c([C@]34CO[C@H](C(F)(F)F)[C@H]3CSC(N)=N4)c2)cn1"
Completion: HIGH

Prompt: Tag the class for "CC#CCOc1cnc(/C(F)=C/c2ccc(F)c([C@]34CN(c5ncc(F)cn5)C[C@H]3CSC(N)=N4)c2)cn1"
Completion: LOW

Prompt: Tag the class for "NC1=N[C@@]2(c3cc(/C=C(\F)c4ccc(F)cn4)ccc3F)CO[C@H](C(F)(F)F)[C@H]2CS1"
Completion: HIGH

Prompt: Tag the class for "C#CCOc1cnc(/C(F)=C/c2ccc(F)c([C@]34CN(C(=O)OC(C)(C)C)C[C@H]3CSC(N)=N4)c2)cn1"
Completion: MEDIUM

Prompt: Tag the class for "NC1=N[C@@]2(c3cc(/C=C(\F)c4cnc(OCC(F)(F)C(F)F)cn4)ccc3F)CN(c3ncc(F)cn3)C[C@H]2CS1"
Completion: HIGH

====

- Tested on: BACE1 (Aβ40 from cells stably expressing Amyloid Precursor Protein)
- assay.notes: In vitro BACE1 cell-based assay (Aβ40 in conditioned medium, HTRF)
- experimental.conditions: Aβ40, 24 h incubation; read-out: BACE1 Cell IC50
recorded.metric: IC50 (nM)
Note: unit nM is implicit; provide only the numeric part.

Prompt: Entry under review: COc1cnc(/C(F)=C/c2ccc(F)c([C@]34CO[C@H](C(F)(F)F)[C@H]3CSC(N)=N4)c2)cn1 [Example 136] . Reported IC50?
Completion: 2030

Prompt: Entry under review: C#CCOc1cnc(/C(F)=C/c2ccc(F)c([C@]34CN(c5ncccn5)C[C@H]3CSC(N)=N4)c2)cn1 [Example 120] . Reported IC50?
Completion: 0.76

Prompt: Entry under review: N#Cc1ccc(/C(F)=C/c2ccc(F)c([C@@]34CO[C@@H](CF)[C@@H]3CSC(N)=N4)c2)nc1 [Example 133] . Reported IC50?
Completion: 2000

Prompt: Entry under review: NC1=N[C@@]2(c3cc(/C=C(\F)c4ccc(Cl)cn4)ccc3F)COC[C@H]2CS1 [Example 105] . Reported IC50?
Completion: 129

Prompt: Entry under review: Cc1cc(C#N)cnc1/C(F)=C/c1ccc(F)c([C@]23CO[C@H](C(F)(F)F)[C@H]2CSC(N)=N3)c1 [Example 138] . Reported IC50?
Completion: 116

Prompt: Entry under review: C#C[C@H](C)Oc1cnc(/C(F)=C/c2ccc(F)c([C@]34CN(c5ncc(F)cn5)C[C@H]3CSC(N)=N4)c2)cn1 [Example 115] . Reported IC50?
Completion: 0.542

Prompt: Entry under review: N#Cc1ccc(/C(F)=C/c2ccc(F)c([C@@]34CN(c5ncc(F)cn5)C[C@@H]3CSC(N)=N4)c2)nc1 [Example 103] . Reported IC50?
Completion: 5.45
